Data provenance: the RNAGym collection of RNA variant scans (doi:10.1073/pnas.2313332121)

B1: TPR t1 (parent)
chain: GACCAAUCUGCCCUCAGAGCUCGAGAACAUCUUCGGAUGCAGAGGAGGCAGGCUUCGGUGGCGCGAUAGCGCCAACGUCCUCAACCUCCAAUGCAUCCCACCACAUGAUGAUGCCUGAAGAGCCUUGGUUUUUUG

Variants of: B1
assay_protocol: polymerase ribozyme fitness, log enrichment relative to wild type (log ratio); higher = more active; in vitro selection for triplet polymerase activity
We use -4 as the dividing line for polymerase ribozyme fitness (log ratio): on or above the line is Yes, below is No.

The following variants have reported results that may help.
[[record]]
mutation_notation = "A16U G17C C114U"
assigned_class = "Yes"

[[record]]
mutation_notation = "C79U A111U"
assigned_class = "Yes"

[[record]]
mutation_notation = "A6U G45U G52C C72U G122A"
assigned_class = "Yes"


API: the following record is the query input.
Data request: Does the variant U21A G63A C88A A91C have recorded polymerase ribozyme fitness (log ratio) that is -4 or more?
Data returned: No
